- Assayed System: dopamine transporter (DAT) (Rattus norvegicus, UniProt P23977)
- Sequence (P23977 whole entry): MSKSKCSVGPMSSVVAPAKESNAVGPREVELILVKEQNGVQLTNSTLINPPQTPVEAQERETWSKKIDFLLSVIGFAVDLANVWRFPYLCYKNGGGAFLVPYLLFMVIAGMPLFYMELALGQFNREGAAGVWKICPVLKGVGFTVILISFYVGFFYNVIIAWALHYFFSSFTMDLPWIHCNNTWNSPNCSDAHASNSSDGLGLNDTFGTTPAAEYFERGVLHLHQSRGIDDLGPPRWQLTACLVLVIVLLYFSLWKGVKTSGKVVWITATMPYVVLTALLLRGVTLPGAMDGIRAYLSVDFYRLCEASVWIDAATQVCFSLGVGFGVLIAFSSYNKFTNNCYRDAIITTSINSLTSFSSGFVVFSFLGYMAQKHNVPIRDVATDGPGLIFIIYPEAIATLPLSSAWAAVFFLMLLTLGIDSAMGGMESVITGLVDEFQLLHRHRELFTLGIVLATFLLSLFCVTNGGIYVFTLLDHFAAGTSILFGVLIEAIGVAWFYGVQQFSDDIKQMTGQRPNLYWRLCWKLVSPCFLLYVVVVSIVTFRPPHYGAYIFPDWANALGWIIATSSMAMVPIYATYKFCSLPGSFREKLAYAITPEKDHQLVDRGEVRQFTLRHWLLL
- Assay Explanation: Inhibition of [3H]dopamine uptake by DAT in rat striatum
Reported Property: Ki (nM)
Dear colleague, please return just the value in nM, with no unit written.

-- ask Give the reported Ki for this compound. c1ccc(C(c2ccccc2)[C@@H]2CC[C@H](NCc3cccs3)CO2)cc1 [Compound 10g]
-- reply 15.9
